- EXPERIMENT DESCRIPTION: soluble on expression in E. coli; label from the status in PepcDB or PDB records

| POLYMER SEQUENCE | soluble on expression in E. coli |
| --- | --- |
| MKEIKLILTDIDGVWTDGGMFYDQTGNEWKKFNTSDSAGIFWAHNKGIPVGILTGEKTEIVRRRAEKLKVDYLFQGVVDKLSAAEELCNELGINLEQVAYIGDDLNDAKLLKRVGIAGVPASAPFYIRRLSTIFLEKRGGEGVFREFVEKVLGINLEDFIAVIQ | soluble |
| MSLELKVHETILEVNLGAMVANLNHYRSMLKPETKMVCMVKASAYGAGSYEIAKTLQEHHADYLAVAVADEGSDLRKAGITASIIIMDPELTAFKTMFDYKLEPEVYNFHLLDALIKAAEKEGITNFPIHVKLDTGMHRLGFEEKDIPQLIRRLKNQNALIPRSVFSHFVGSDSAQFDAFTRQQIERYEKMSKELQDAFPHKILRHICNTAGIERFPGAQFDMVRLGIGLYGISPIDNSIINNVSTLKTTILQIRDVAEEDTVGYSRKGHLIRPSRIAAIPIGYADGLNRHLGCGHGYCLVNGKKAPYVGNICMDVCMIDVTDIDCREGDQAIIFGDELPITALSDALETIPYEVLTGISTRVKRVYYQDEGHHHHHH | soluble |
| DFKLDFKDIKGQEKAKRACMIAALGMHNILFEGSPGSGKSMCAKRLVYIMPPQSLSEILMQNAYMSLDSKDCEFTKIRAFRHPHHTSTRASIFGGGTKNARIGEVALANGGVLFFDEFPHFNKQIIESLREPLEDHKIHISRVNSKITYETKFSFIAAQNPCPCGNL | not soluble |
| SRRLGKSLGINSIPCKFCSYDCVYCQVGRTINKTIERREFYSPEDIFKSVEERIGKLNNEKIDYLTFVADGEPTLDINLSKEVEMLRDFDIPIAIITNSSLIWREDVRNDILNFDLVSFKVDSVDEKIWREINRPHKDLVLDKILEGMIAFRDNYKGELITETMILGSIKYTEESIIKTAEFLKELNPNKCYLNTPIRPPSEKYIKPPKIEVITKILAIFNEIIGKNKIKLLGKFE | not soluble |

---

- EXPERIMENT DESCRIPTION: soluble on expression in E. coli; label from the status in PepcDB or PDB records
ASSAY READOUT: soluble on expression in E. coli

These solved cases illustrate the format of a correct answer.
| POLYMER SEQUENCE | soluble on expression in E. coli |
| --- | --- |
| MSLDIAELHRAGDDIKEMMKSEGYYSEPSKYEAELSDGNITFAYSYPIKAFEKFLGYYDRENRIAFNPSISMRTDFSFCLAACRYRKNGKTDTVVLDGYADNKYYKKAKFALDKFRSEYSINGSFDFYIKRYRRYQKAKGLSESSAVAAAVSRALISNVFGDDAAKDDIFVSRYARLVSGSGTRAAHDGISMWLSYPGMDSRDCVAFKVGKSNENLNYGVFPKYSDVATDNAHSIAVNSVFYGTWVSEKFSNVKRLISDHFDINDLLKIGENDMLRLNSILMSGGLIIQTPDSLRILKEILKFKSKNEGFYFTADTGPSIAIFSFDRSLIDEFRENVNDEYIEGSYDFKGYNNRMRDFIREAQEYFTQTPGEDEEDREGHHHHHH | soluble |
| FNDEGEMHLPGQYDMLKARLAKNPGAELLIFIHGWHHNAAPTDDNFVAFQRFHRQMAKTNPGLIGLYIGWRGDQYDPLWLDGSDDPESRVEALDFPTILTSKQVARRVGEHGVRKLLSSLDELHRQGTLGRYILVGHSLGGVVALHA | not soluble |
| MFNVDGECVVFTSGGTESNNWVIEGTIRNAKKVSKLPHIITTNIEHPSILEPLKRREEDGEISVTYVSINPLTGFVTSQSILDALTSDTCLVTIMLANNDTGVLQPVSEIFQAIREKLKTNVPFLHSDVAQAAGKIPVNVRSLSADAVTVVGHKFYGPRSGALIFNPKSKRIPPMLLGGNQESGWRSGTENTPMIVGLGEAAKVYNEGFLNIESILRQNRDYFEELLLKRLRNSHIIHFIGSQRLPNTSSVAFLDYPSHGCDLLEKCQTFNASTGAACHKNECSPILKACGIPFAVASKTVRISFGRSTKIAEIETVVDELVQLCSPS | not soluble |
| CLAEGTRIFDPVTGTTHRIEDVVYGRKPIHVVAAAKDGTLHARPVVSWFDQGTRDVIGLRIAGGAIVWATPDHKVLTEYGWRAAGELRKGDRVAVRDVETGELRYSVIREVLPTRRARTFDLEVEELHTLVAEGVVVHN | soluble |

Let us move to another entry and its soluble on expression in E. coli.
Please report soluble on expression in E. coli for the following sequence: `MFIQTEATPNPATLKFLPGKVVLESGTVEFLNASQAQASPLAERLFTIPGVTGVYFGFDFITVTKDDAEWQHLKPAILGSIMEHFMSGRPIMGTAIAAEVSDEEGEFFEEGDETIVATIKELLDTRVRPAVAQDGGDITFRGFRDGTVFLNMKGACSGCPSSTATLKHGVQNLLRHFVPEVREVEAV` not soluble

---

- EXPERIMENT DESCRIPTION: soluble on expression in E. coli; label from the status in PepcDB or PDB records
ASSAY READOUT: soluble on expression in E. coli

| POLYMER SEQUENCE | soluble on expression in E. coli |
| --- | --- |
| MTKSILLVGVGGQGTILASKLLTMGLMEAGYDVKMSEIHGMSQRGGSVSSQVRYGDCVHSPVIEIGGADILVSFEKMEALRWFNYLKPEGKALVNNHRIDSMTVLIGGAEYQESDIDAELSRLNAKVINAADKAEELGNSKIMNVILLGCLVKSMQLESIDWEKIISENVKPKFVELNIKAFHEGMEMVSK | not soluble |
| MSLKWNRPAGSLSATLILAHGAGAPMDSPFMERIAELLAAQGIAVARFEFPYMAQRREDGRKRPPNPQAQLLDCWRRVHAQVRETLDGPLALGGKSMGGRMASLLADELGADALVCLGYPFYAAGKPEKPRVAHLAGLRTPTLIVQGERDALGNREAVAGYALAPTIRLHWLAAADHDLKPLKASGLTHEQHLAATAREVAGFLRGLQGH | not soluble |
| MNVMDTHPDGRAIAHLAERIRAGLIGHEILVERLMTALLTGGHVLIEGAPGLAKTRAVKRLAQGLDGSFARIQCTPDLMPSDLTGTQVFRRQSESFDFVPGPIFHSLVLVDEINRAPPKVQSALLEAMAEGQVTAGGVTRPLPDPFMVVATQNPIEHEGTFPLPEAQLDRFLLHVDLAMPGAEAERAILDLVEGEAREAALPAGRPLELAELRRARAAVAGIHLAPALRDFIVRLVIATRETEGSPLEGLIEHAVSPRGTLALAASARSRALLHGRDHALPEDVEALAPDALAHRLVPSWRATSEGISARGIVARLLPHVRPWLEHHHHHH | not soluble |
| MGSDKIHHHHHHMMQPVINAPEIATAREQQLFNGKNFHVFIYNKTESISGLHQHDYYEFTLVLTGRYFQEINGKRVLLERGDFVFIPLGSHHQSFYEFGATRILNVGISKRFFEQHYLPLLPYCFVASQVYRTNNAFLTYVETVISSLNFRETGLEEFVEMVTFYVINRLRHYREEQVIDDVPQWLKSTVEKMHDKEQFSESALENMVALSAKSQEYLTRATQRYYGKTPMQIINEIRINFAKKQLEMTNYSVTDIAFEAGYSSPSLFIKTFKKLTSFTPKSYRKKLTEFNQ | not soluble |
| MAKRVFIGATGQNCGKTTMSVSLMHLARQKYDRVGFIKPIGPKIEGYNGLTVDMDAILMARTFGLEEDLPLMNPVSLHKNFTRDFLSGKLDCNVLKTKILEAFEILDKKYDFLIIEGAGHGGVGSVIGLSNACVAHTLNAPVIIVTDSGIGSSIDAVHLNLALYEKEDADVRMLLVNKLRADKRESILSFLGKGFPGRPLKISGGFNYSPILANPTLSHIGKLLNLPVHGDPDGQSRIIHHIHLGAASAQRVVDALQESTLIVITSSRDELIVTLSSLYHIPAFREKIVGLVIAGHIPASEISQQILDDSNIPYIRVHDSTANVFTTLMEDVAKITAEDQEKLNWIRANAENEIDFEAIDALLLEHHHHHH | not soluble |
| MARRRRAEVRQLQPDLVYGDVLVTAFINKIMRDGKKNLAARIFYDACKIIQEKTGQEPLKVFKQAVENVKPRMEVRSRRVGGANYQVPMEVSPRRQQSLALRWLVQAANQRPERRAAVRIAHELMDAAEGKGGAVKKKEDVERMAEANRAYAHYRW | soluble |

Supply soluble on expression in E. coli value. Item: `MAHHHHHHMLRLLPLRLASKVTAGNAKNQAGHPRRKAKLFHVIPGTPVTPMEKLKEQRRRYGQDRHSRLPEYRPGKNVRLDPNTFTLYATTKGVMTIRESRINPKYKWLEVEPDIQKVYRSSQMRRALAARGMTSQMVEKNEHYRSEMDLLLEPHWRQRVMRVPKATERFKDPNLFVRGVITELTPMDRYCYE` not soluble

Please indicate soluble on expression in E. coli recorded for `MKFVNFDEYKQLVDYFRNRLNPNYSSPTMLFIISITGMRASEAFGLVWDDIDFNNNTIKCRRTWNYRNKVGGFKKPKTDAGIRDIVIDDESMQLLKDFREQQKTLFESLGIKPIHDFVCYHPYRKIITLSALQNTLDHALKKLNISTPLTVHGLRHTHASVLLYHGVDIMTVSKRLGHASVAITQQTYIHIIKLEHHHHHH` not soluble

Return soluble on expression in E. coli for the following sequence: `MGQQLLSHQSVSSQWLANQSATSTLPLLDLSLLSGSDTERQAFLTALRHAARDVGFFYLTGHGIDTSLLRQIQILSRQFFALSDEEKLSIAMIRSPHFRGYNRAASEFTRGQPDWREQFDIGAERTPLPQIAGAPSWTRLQGPNQWPTALPELKPVLLQWQEEMTRMSLRLLRAFALALDLDEQAFDALYGDKPNEHIKLIRYPGREATQSGQGVGAHKDSGFLSFLLQDTQRGLQVEVEEGQWIDAVPREGTFVVNIGELLELASNGYLRATVHRVETPPAGIDRLSIAFFLGARLDAVVPLYPLSAALAAEARGPASDPHNPLFRDVGLNYLKGRLRSHPDVAERYYSDALCS` not soluble

# return recorded soluble on expression in E. coli for input `MSLKRYRTLLFDVDDTILDFQAAEALALRLLFEDQNIPLTNDMKAQYKTINQGLWRAFEEGKMTRDEVVNTRFSALLKEYGYEADGALLEQKYRRFLEEGHQLIDGAFDLISNLQQQFDLYIVTNGVSHTQYKRLRDSGLFPFFKDIFVSEDTGFQKPMKEYFNYVFERIPQFSAEHTLIIGDSLTADIKGGQLAGLDTCWMNPDMKPNVPEIIPTYEIRKLEELYHILNIENTVSEGHHHHHH` soluble

Fill in soluble on expression in E. coli for record `NLSSEYVKDIYAYLRQLEAAQAVRPKYLLGREVTGNMRAILIDWLVQVQMKFRLLQETMYMTVSIIDRFMQNNSVPKKMLQLVGVTAMFIASKYEEMYPPEIGDFAFVTDNTYTKHQIRQMEMKILRALNFGLGRPLPLHFLRRASKIGEVDVEQHTLAKYLMELTMLDYDMVHFPPSQIAAGAFSLALKILDNGEWTPTLQHYLSYTEESLLPVMQHLAKNVVMVNQGLTKHMTVKNKYATSKHAKISTLPQLNSALVQDLAKAVAKV` soluble
